Parameter CC50 at 24 h: see the listing below.
- method description: in vitro
- experimental conditions: rat, gh3-tre-luc cells, AC50 (uM) modified / 1000
Where a name gives a salt, the structure may show the parent alone.

See these solved cases before continuing.
O=C(O[C@H]1C[C@H]2CC[C@@H](C1)[N+]21CCCC1)C(O)(c1ccccc1)c1ccccc1 [Trospium chloride]
> 50 µM
Cc1c[nH]c(=S)[nH]c1=O
> 90 µM
CCC(C)(C)c1ccc(O)c(C(C)(C)CC)c1
10.5 µM
CCN(CC)CCNC(=O)c1cc(Br)c(N)cc1OC [Bromopride]
> 50 µM
CCCCCCCCCCn1cc[n+](CCCCCCCCCC)c1C [1,3-Didecyl-2-methylimidazolium chloride]
6.21 µM

Query: Given the entry CN1c2c(nc(N)[nH]c2=O)NCC1CNc1ccc(C(=O)N[C@@H](CCC(=O)O)C(=O)O)cc1 (stereo partly drawn) [Disodium 5-methyltetrahydrofolate] , report its measured CC50 at 24 h.
Result: > 50 µM

Query: Given the entry CCOC(=O)[C@H](CCc1ccccc1)N[C@@H](C)C(=O)N1CC2(C[C@H]1C(=O)O)SCCS2 [Spirapril hydrochloride] , report its measured CC50 at 24 h.
Result: > 50 µM

Query: Given the entry O=[N+]([O-])c1cc(C(F)(F)F)cc([N+](=O)[O-])c1Cl , report its measured CC50 at 24 h.
Result: > 90 µM
